# assayed_system: Mu-type opioid receptor (Homo sapiens, UniProt P35372)
# Sequence (P35372 whole entry): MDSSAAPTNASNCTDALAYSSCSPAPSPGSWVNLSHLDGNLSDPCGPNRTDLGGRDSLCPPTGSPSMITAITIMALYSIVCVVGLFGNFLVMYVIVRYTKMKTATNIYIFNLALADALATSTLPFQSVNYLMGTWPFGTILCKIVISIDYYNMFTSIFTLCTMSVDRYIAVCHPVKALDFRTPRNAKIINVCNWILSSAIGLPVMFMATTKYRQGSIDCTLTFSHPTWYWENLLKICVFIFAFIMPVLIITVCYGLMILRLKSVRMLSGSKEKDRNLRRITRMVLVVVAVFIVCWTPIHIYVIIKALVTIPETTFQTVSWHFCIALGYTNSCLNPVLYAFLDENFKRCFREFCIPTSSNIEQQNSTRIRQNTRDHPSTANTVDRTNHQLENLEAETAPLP
# assay_info: Activity at human mu opioid receptor expressed in CHO cells by [35S]GTP-gamma-S binding assay
Consider the following compounds and their measured IC50 readings.
The reply should read as a number followed by its unit.

# query: IC50 of entry O=C(CCCCCCCCC(=O)Oc1ccc2c(c1)[C@@]13CCCCC1[C@@H](C2)N(CC1CCC1)CC3)Nc1ccc2c(c1)[C@@]13CCCCC1[C@@H](C2)N(CC1CCC1)CC3 (some centres undefined)
150 nM

# query: IC50 of entry O=C(CCCCCCCCC(=O)Oc1ccc2c(c1)[C@@]13CCCCC1[C@@H](C2)N(CC1CC1)CC3)Oc1ccc2c(c1)[C@@]13CCCCC1[C@@H](C2)N(CC1CCC1)CC3 (single isomer, unassigned; (-))
96 nM

# query: IC50 of entry O=C(CCCCCCCCC(=O)Oc1ccc2c(c1)[C@]13CCCCC1[C@H](C2)N(CC1CCC1)CC3)Oc1ccc2c(c1)[C@@]13CCCCC1[C@@H](C2)N(CC1CCC1)CC3 (single isomer, unassigned; (+))
460 nM

# query: IC50 of entry O=C(CCCCCCCCC(=O)Oc1ccc2c(c1)[C@@]13CCCCC1[C@@H](C2)N(C[C@@H]1CCCO1)CC3)Oc1ccc2c(c1)[C@@]13CCCCC1[C@@H](C2)N(C[C@@H]1CCCO1)CC3 (some centres undefined)
360 nM

// provenance: ChEMBL document CHEMBL1148605
